- Test system: S. pyogenes iMLS
- procedure summary: MIC by broth dilution (NCCLS M7-A2)
- Assay type: cell-based
- condition parameters: 90% growth inhibition
reported metric: MIK (µg/mL)
Provide the reading as a plain figure in µg/mL.

CC[C@H]1OC(=O)[C@H](C)[C@@H](O[C@H]2C[C@@](C)(OC)[C@@H](O)[C@H](C)O2)[C@H](C)[C@@H](O[C@@H]2O[C@H](C)C[C@H](N(C)C)[C@H]2O)[C@](C)(O)C[C@@H](C)CN(CCCNC(=S)Nc2cccc3ccccc23)[C@H](C)[C@@H](O)[C@]1(C)O	4

Now look at this entry.
Inquiry: // MIK lookup, key: `CC[C@H]1OC(=O)[C@H](C)[C@@H](O[C@H]2C[C@@](C)(OC)[C@@H](O)[C@H](C)O2)[C@H](C)[C@@H](O[C@@H]2O[C@H](C)C[C@H](N(C)C)[C@H]2O)[C@](C)(O)C[C@@H](C)CN(CCCNC(=O)Nc2cc(OC)c(OC)c(OC)c2)[C@H](C)[C@@H](O)[C@]1(C)O`
Reply text: 32

* * *

Known MIK of a selection of compounds
- Tested on: S. pyogenes iMLS
- procedure summary: MIC by broth dilution (NCCLS M7-A2)
- Type: cell-based
- condition parameters: 90% growth inhibition
Response body: numeric value in µg/mL, unit text excluded.

# count of solved cases: 3
CC[C@H]1OC(=O)[C@H](C)[C@@H](O[C@H]2C[C@@](C)(OC)[C@@H](O)[C@H](C)O2)[C@H](C)[C@@H](O[C@@H]2O[C@H](C)C[C@H](N(C)C)[C@H]2O)[C@](C)(O)C[C@@H](C)CN(CCCNC(=O)Nc2cccc3ccccc23)[C@H](C)[C@@H](O)[C@]1(C)O [Example 2]	2
CC[C@H]1OC(=O)[C@H](C)[C@@H](O[C@H]2C[C@@](C)(OC)[C@@H](O)[C@H](C)O2)[C@H](C)[C@@H](O[C@@H]2O[C@H](C)C[C@H](N(C)C)[C@H]2O)[C@](C)(O)C[C@@H](C)CN(CCCNC(=O)NC(C)C)[C@H](C)[C@@H](O)[C@]1(C)O [Example 1]	8
CC[C@H]1OC(=O)[C@H](C)[C@@H](O[C@H]2C[C@@](C)(OC)[C@@H](O)[C@H](C)O2)[C@H](C)[C@@H](O[C@@H]2O[C@H](C)C[C@H](N(C)C)[C@H]2O)[C@](C)(O)C[C@@H](C)CN(CCCNC(=S)NCc2ccccc2)[C@H](C)[C@@H](O)[C@]1(C)O [Example 4]	2

Inquiry: Consider the compound shown here: CC[C@H]1OC(=O)[C@H](C)[C@@H](O[C@H]2C[C@@](C)(OC)[C@@H](O)[C@H](C)O2)[C@H](C)[C@@H](O[C@@H]2O[C@H](C)C[C@H](N(C)C)[C@H]2O)[C@](C)(O)C[C@@H](C)CN(CCCNC(=O)Nc2ccc3ccccc3c2)[C@H](C)[C@@H](O)[C@]1(C)O [Example 12] What is its recorded MIK?
Reply text: 2

* * *

- Tested on: E. faecalis ATCC 29212
- procedure summary: MIC by broth dilution (NCCLS M7-A2)
- Format: cell-based
- condition parameters: 90% growth inhibition
reported metric: MIK (µg/mL)
Respond numerically; units are µg/mL and should not be typed.

Solved entries (count: 4):
CC[C@H]1OC(=O)[C@H](C)[C@@H](O[C@H]2C[C@@](C)(OC)[C@@H](O)[C@H](C)O2)[C@H](C)[C@@H](O[C@@H]2O[C@H](C)C[C@H](N(C)C)[C@H]2O)[C@](C)(O)C[C@@H](C)CN(CCCNC(=O)N(CCC#N)c2ccccc2C(F)(F)F)[C@H](C)[C@@H](O)[C@]1(C)O	64
CC[C@H]1OC(=O)[C@H](C)[C@@H](O[C@H]2C[C@@](C)(OC)[C@@H](O)[C@H](C)O2)[C@H](C)[C@@H](O[C@@H]2O[C@H](C)C[C@H](N(C)C)[C@H]2O)[C@](C)(O)C[C@@H](C)C(=O)[C@H](C)[C@@H](O)[C@]1(C)O [Er, erythromycin A, reference compound]	1
CC[C@H]1OC(=O)[C@H](C)[C@@H](O[C@H]2C[C@@](C)(OC)[C@@H](O)[C@H](C)O2)[C@H](C)[C@@H](O[C@@H]2O[C@H](C)C[C@H](N(C)C)[C@H]2O)[C@](C)(O)C[C@@H](C)CN(CCCNC(=O)Nc2ccccc2C(F)(F)F)[C@H](C)[C@@H](O)[C@]1(C)O	64
CC[C@H]1OC(=O)[C@H](C)[C@@H](O[C@H]2C[C@@](C)(OC)[C@@H](O)[C@H](C)O2)[C@H](C)[C@@H](O[C@@H]2O[C@H](C)C[C@H](N(C)C)[C@H]2O)[C@](C)(O)C[C@@H](C)CN(CCCNC(=O)Nc2cccc3ccccc23)[C@H](C)[C@@H](O)[C@]1(C)O	4

Inquiry: MIK for `CC[C@H]1OC(=O)[C@H](C)[C@@H](O[C@H]2C[C@@](C)(OC)[C@@H](O)[C@H](C)O2)[C@H](C)[C@@H](O[C@@H]2O[C@H](C)C[C@H](N(C)C)[C@H]2O)[C@](C)(O)C[C@@H](C)CN(CCCNC(=O)NC(C)C)[C@H](C)[C@@H](O)[C@]1(C)O` ?
Reply text: 32

Inquiry: Which MIK is listed for `CC[C@H]1OC(=O)[C@H](C)[C@@H](O[C@H]2C[C@@](C)(OC)[C@@H](O)[C@H](C)O2)[C@H](C)[C@@H](O[C@@H]2O[C@H](C)C[C@H](N(C)C)[C@H]2O)[C@](C)(O)C[C@@H](C)CN(CCCNC(=O)N(CCC#N)c2ccc3ccccc3c2)[C@H](C)[C@@H](O)[C@]1(C)O` ?
Reply text: 8

Inquiry: Need MIK, item `CC[C@H]1OC(=O)[C@H](C)[C@@H](O[C@H]2C[C@@](C)(OC)[C@@H](O)[C@H](C)O2)[C@H](C)[C@@H](O[C@@H]2O[C@H](C)C[C@H](N(C)C)[C@H]2O)[C@](C)(O)C[C@@H](C)CN(CCCNC(=S)Nc2cccc3ccccc23)[C@H](C)[C@@H](O)[C@]1(C)O`
Reply text: 4

* * *

Entries annotated with measured MIK
- Test system: S. pyogenes iMLS
- procedure summary: MIC by broth dilution (NCCLS M7-A2)
- Type: cell-based
- condition parameters: 90% growth inhibition
Output spec: scalar in µg/mL, unitless text.

Inquiry: Requested field: MIK. Item: CCOC(=O)CNC(=O)NCCCN1CC(C)CC(C)(O)C(OC2OC(C)CC(N(C)C)C2O)C(C)C(OC2CC(C)(OC)C(O)C(C)O2)C(C)C(=O)OC(CC)C(C)(O)C(O)C1C (centres unmarked) [Example 9]
Reply text: 16

Inquiry: # input compound: CC[C@H]1OC(=O)[C@H](C)[C@@H](O[C@H]2C[C@@](C)(OC)[C@@H](O)[C@H](C)O2)[C@H](C)[C@@H](O[C@@H]2O[C@H](C)C[C@H](N(C)C)[C@H]2O)[C@](C)(O)C[C@@H](C)CN(CCCNC(=O)Nc2ccccc2C(F)(F)F)[C@H](C)[C@@H](O)[C@]1(C)O [Example 6] ; wanted: its MIK
Reply text: 8

* * *

- System: S. pyogenes
- procedure summary: MIC by broth dilution (NCCLS M7-A2)
- Format: cell-based
- condition parameters: 90% growth inhibition
reported metric: MIK

CC[C@H]1OC(=O)[C@H](C)[C@@H](O[C@H]2C[C@@](C)(OC)[C@@H](O)[C@H](C)O2)[C@H](C)[C@@H](O[C@@H]2O[C@H](C)C[C@H](N(C)C)[C@H]2O)[C@](C)(O)C[C@@H](C)CN(CCCNC(=O)NCCc2ccccc2)[C@H](C)[C@@H](O)[C@]1(C)O	≦0.125 μg/ml
CCOC(=O)CNC(=O)NCCCN1CC(C)CC(C)(O)C(OC2OC(C)CC(N(C)C)C2O)C(C)C(OC2CC(C)(OC)C(O)C(C)O2)C(C)C(=O)OC(CC)C(C)(O)C(O)C1C (stereo not drawn)	≦0.125 μg/ml
CC[C@H]1OC(=O)[C@H](C)[C@@H](O[C@H]2C[C@@](C)(OC)[C@@H](O)[C@H](C)O2)[C@H](C)[C@@H](O[C@@H]2O[C@H](C)C[C@H](N(C)C)[C@H]2O)[C@](C)(O)C[C@@H](C)CN(CCCNC(=O)N(CCC#N)CCCc2ccccc2)[C@H](C)[C@@H](O)[C@]1(C)O	≦0.125 μg/ml

* * *

- Test system: S. pyogenes iMLS
- procedure summary: MIC by broth dilution (NCCLS M7-A2)
- Assay type: cell-based
- condition parameters: 90% growth inhibition
reported metric: MIK

CC[C@H]1OC(=O)[C@H](C)[C@@H](O[C@H]2C[C@@](C)(OC)[C@@H](O)[C@H](C)O2)[C@H](C)[C@@H](O[C@@H]2O[C@H](C)C[C@H](N(C)C)[C@H]2O)[C@](C)(O)C[C@@H](C)CN(CCCNC(=S)NCCCc2ccccc2)[C@H](C)[C@@H](O)[C@]1(C)O [Example 7]	4 µg/mL
CC[C@H]1OC(=O)[C@H](C)[C@@H](O[C@H]2C[C@@](C)(OC)[C@@H](O)[C@H](C)O2)[C@H](C)[C@@H](O[C@@H]2O[C@H](C)C[C@H](N(C)C)[C@H]2O)[C@](C)(O)C[C@@H](C)CN(CCCNC(=O)N(CCC#N)CCCc2ccccc2)[C@H](C)[C@@H](O)[C@]1(C)O [Example 33]	4 µg/mL
CC[C@H]1OC(=O)[C@H](C)[C@@H](O[C@H]2C[C@@](C)(OC)[C@@H](O)[C@H](C)O2)[C@H](C)[C@@H](O[C@@H]2O[C@H](C)C[C@H](N(C)C)[C@H]2O)[C@](C)(O)C[C@@H](C)CN(CCCNC(=O)N(CCC#N)c2cccc3ccccc23)[C@H](C)[C@@H](O)[C@]1(C)O [Example 28]	2 µg/mL

Inquiry: Tell me reported MIK for CC[C@H]1OC(=O)[C@H](C)[C@@H](O[C@H]2C[C@@](C)(OC)[C@@H](O)[C@H](C)O2)[C@H](C)[C@@H](O[C@@H]2O[C@H](C)C[C@H](N(C)C)[C@H]2O)[C@](C)(O)C[C@@H](C)CN(CCCNC(=O)NCc2ccccc2)[C@H](C)[C@@H](O)[C@]1(C)O [Example 3] , tested with S. pyogenes iMLS.
Reply text: 4 µg/mL

Sourced from patent US7342000B2
